assay.metric: Ki
Numeric answer plus unit only.

API: value(readout=Ki, system=Procathepsin L (Homo sapiens, UniProt P07711)) for record `CCCC[C@H](NC(=O)OCc1ccccc1)C(=O)N[C@H](/C=C/C(C)=O)C[C@@H]1CCNC1=O` 1920 nM

API: value(readout=Ki, system=Procathepsin L (Homo sapiens, UniProt P07711)) for record `CC(=O)/C=C/[C@H](C[C@@H]1CCNC1=O)NC(=O)[C@H](CC1CC1)NC(=O)OCc1ccccc1` 3380 nM

API: value(readout=Ki, system=Procathepsin L (Homo sapiens, UniProt P07711)) for record `CC(=O)/C=C/[C@H](C[C@@H]1CCNC1=O)NC(=O)[C@H](CC1CCCCC1)NC(=O)OCc1ccccc1` 252 nM

----------
test.target: Replicase polyprotein 1ab (Severe acute respiratory syndrome coronavirus 2, UniProt P0DTD1)
Label yes (1) when Ki is strictly below 300 nM; at or above that, label no (0).

Dear reviewer, please state whether `CC(=O)/C=C/[C@H](C[C@@H]1CCNC1=O)NC(=O)[C@H](CC1CC1)NC(=O)OCc1ccccc1` has Ki strictly beneath 300 nM. yes (1)

Dear reviewer, please state whether `CC(=O)/C=C/[C@H](C[C@@H]1CCNC1=O)NC(=O)[C@H](CC(C)C)NC(=O)OCc1ccccc1` has Ki strictly beneath 300 nM. no (0)

Dear reviewer, please state whether `CCC[C@H](NC(=O)OCc1ccccc1)C(=O)N[C@H](/C=C/C(C)=O)C[C@@H]1CCNC1=O` has Ki strictly beneath 300 nM. no (0)

Dear reviewer, please state whether `CCCC[C@H](NC(=O)OCc1ccccc1)C(=O)N[C@H](/C=C/C(C)=O)C[C@@H]1CCNC1=O` has Ki strictly beneath 300 nM. yes (1)

Dear reviewer, please state whether `CC(=O)/C=C/[C@H](C[C@@H]1CCNC1=O)NC(=O)[C@H](CC(C)(C)C)NC(=O)OCc1ccccc1` has Ki strictly beneath 300 nM. no (0)

Dear reviewer, please state whether `CC(=O)/C=C/[C@H](C[C@@H]1CCNC1=O)NC(=O)[C@H](CC1CCCCC1)NC(=O)OCc1ccccc1` has Ki strictly beneath 300 nM. yes (1)
